test system: COLO 205 colon; experiment: NCI tumour cell line growth inhibition, 48 h
Recorded GI50, one value per entry.

| molecule | GI50 |
| --- | --- |
| O=C(/C(=C/c1ccc([N+](=O)[O-])cc1)c1ccccc1)c1ccccc1 | 3810 nM |
| COc1ccc(-c2n[nH]nc2-c2cc(OC)c3c(c2OC)OCO3)cc1 | 1190 nM |
| Cc1cc(N/N=C/c2nc(-c3ccc(Br)cc3)oc2C)c2cc(Cl)ccc2n1 | > 100000 nM |
| Cc1ccc(-c2cc(-c3ccc(C)cc3)nc(NCCNc3ccnc4cc(Cl)ccc34)n2)cc1 | 1690 nM |
| O=C1c2c(c3c4ccccc4[nH]c3c3ccc4ccccc4c23)C(=O)N1CCN1CCCCC1 | 1380 nM |
| C/C(=N\Nc1ccc2ccccc2n1)c1ccccn1 | < 19.5 nM |
| C[C@@H]1CC[C@H]2C(COCCOCC3=C(C(F)(F)F)O[C@@H]4O[C@@]5(C)CC[C@H]6[C@H](C)CC[C@@H]3[C@@]46OO5)=C(C(F)(F)F)O[C@@H]3O[C@@]4(C)CC[C@@H]1[C@]32OO4 | 18.8 nM |
| COc1ccc(C2CC(c3cc(OC)c(OC)c(OC)c3)=NN2C(C)=O)cc1OCC(=O)Nc1nc2ccc(C(F)(F)F)cc2s1 (stereo unspecified) | 3940 nM |
| CN(C)c1ccc2c(c1)Sc1cc(N(C)C)ccc1N2C(=O)c1ccccc1 | > 100000 nM |
| O=[N+]([O-])c1cccc(-c2nc3sccn3c2-c2ccnc(NCCCNS(=O)(=O)c3cccc(F)c3)n2)c1 | 2460 nM |
| CC(C)(C)c1ccc(OCCCCCCN2CCNCC2)cc1 | 1950 nM |

----------
tested on: T-47D breast; experiment: NCI tumour cell line growth inhibition, 48 h
The following compounds are listed with their measured GI50 values.
assay-metric: GI50

| compound | observed-measurement |
| --- | --- |
| COc1ccc(-c2cc(-c3ccccc3)nc(SCCCC(=O)NO)n2)cc1 | 0.804 µM |
| C=C1CC[C@@H]2[C@](C)(COC(C)=O)[C@@H](O)CC[C@@]2(C)[C@@H]1COc1ccc2ccc(=O)oc2c1 | > 100 µM |
| COc1ccc(-c2n[nH]nc2-c2cc(OC)c3c(c2OC)OCO3)cc1 | 1.73 µM |
| CN(C)c1ccc2c(c1)Sc1cc(N(C)C)ccc1N2C(=O)c1ccccc1 | 35.2 µM |
| CC1=C(CCC(C)N(C)Cc2ccc(OCCCN3CCCC3)cc2)C(C)(C)CCC1 (stereo not given) | 1.72 µM |
| CC(CN1CCN(CCOCCO)CC1)CN1c2ccccc2Sc2ccc(Cl)cc21 (stereo not given) | 6.22 µM |
| O=C(c1ccccc1)C(CN1CCOCC1)c1ccccc1 (stereo not given) | 3 µM |
| O=C1c2c(c3c4ccccc4[nH]c3c3ccc4ccccc4c23)C(=O)N1CCN1CCCCC1 | 1.61 µM |
| CN(C)c1ccc(/C=C\c2cccc[n+]2C)cc1 | 4.37 µM |
| COC(=O)C(Cc1ccccc1)NC(=O)NC(=O)NC(=O)CI (stereo not given) | 2.71 µM |

----------
system: NCI-H522 lung; experiment: NCI tumour cell line growth inhibition, 48 h

| compound | scale-unit | limit-sign | TGI |
| --- | --- | --- | --- |
| CCOC(=O)c1oc2ccc(OC)c3c2c1CCC3 | µM | > | 100 |
| C1=NCCNCCN=Cc2ccc(cc2)OCc2cccc(n2)COc2ccc1cc2 | µM | > | 100 |
| C/C(=N\Nc1nc2ccccc2s1)c1ncccn1 | µM | = | 16.5 |
| CN(C)CCNc1nc(-c2ccc3ccccc3c2)nc2nc[nH]c12 | µM | = | 6.22 |
| O=c1cc(-c2ccccc2)[nH]c2cc(O)ccc12 | µM | = | 76.2 |
| COc1ccc(NS(=O)CCCc2ccccc2)cc1 (stereo unspecified) | µM | > | 100 |
| COc1nc(N)c(NC2OC(CO)C(O)C2O)c(=O)[nH]1 (stereo unspecified) | µM | > | 100 |
| CCC(NC(C)c1ccccc1)C(O)c1ccc(OCc2ccccc2)c(OCc2ccccc2)c1 (stereo unspecified) | µM | = | 35.1 |
| CN(C)c1ccc(C=C2C(=O)OC(C)(C)OC2=O)cc1Br | µM | > | 100 |
| COc1cc2cc(C(=O)N3CC(CCl)c4ccc(O)cc43)[nH]c2c(OC)c1OC (stereo unspecified) | µM | = | 0.00168 |
| COc1ccc(C(OCC2OC(n3ccc(NC(=O)c4ccccc4)nc3=O)C(O)C2O)(c2ccccc2)c2ccccc2)cc1 (stereo unspecified) | µM | = | 5.61 |

----------
system: DLD-1 colon; assay: NCI tumour cell line growth inhibition, 48 h
assay-metric: TGI

| smi | target-or-test-system | observed-measurement |
| --- | --- | --- |
| c1ccc(SC(CCCCC(Sc2ccccc2)Sc2ccccc2)Sc2ccccc2)cc1 | DLD-1 colon | > 100 µM |
| COc1ccc(N=c2ssc3c(=S)ssc23)cc1 | DLD-1 colon | 54.5 µM |
| Cc1ccc(Oc2ccc(C)cc2[N+](=O)[O-])cc1 | DLD-1 colon | > 100 µM |

----------
system: MOLT-4 leukemia; test: NCI tumour cell line growth inhibition, 48 h
Listed here: items and their measured TGI.

| molecule | TGI |
| --- | --- |
| COC(=O)Cn1c2c(c3c(O)cccc31)C(=O)c1ccccc1-2 | > 100 µM |
| CCOC(=O)C1=C(O)C(=O)c2ccsc2C1=O | > 100 µM |
| CC(=O)OCC(OC(C)=O)C(OC(C)=O)C(C=NN(C(C)=O)S(=O)(=O)c1ccc(/C=C2\NC(=O)NC2=O)cc1)OC(C)=O (stereo not given) | > 100 µM |
| Nc1ncnc2[nH]ncc12 | > 100 µM |
| CC12Nc3ccccc3N1C(=O)c1ccccc12 (stereo not given) | > 100 µM |
| C[C@@H]1CC[C@H]2C(COCCOCC3=C(C(F)(F)F)O[C@@H]4O[C@@]5(C)CC[C@H]6[C@H](C)CC[C@@H]3[C@@]46OO5)=C(C(F)(F)F)O[C@@H]3O[C@@]4(C)CC[C@@H]1[C@]32OO4 | > 100 µM |
| COc1nc(N)c(NC2OC(CO)C(O)C2O)c(=O)[nH]1 (stereo not given) | > 100 µM |
| CCC1C(c2cc(OC)c(OC)c(OC)c2)c2cc3c(cc2OC1N1CCCC1)OCO3 (stereo not given) | 22.8 µM |
| Fc1ccc2nc3n(c2c1)C(c1c(F)cccc1F)SC3 (stereo not given) | > 100 µM |
| C/C(=N\Nc1nc2ccccc2s1)c1ncccn1 | > 53.9 µM |
| COC(=O)C1CC2(CCC1=O)Cc1ccccc1C2=O (stereo not given) | > 100 µM |
| O=C(C1CCCCC1)[C@@H]1[C@]2(C(=O)NC3CCCCC32)[C@@H]2CCCN2[C@@]12C(=O)NC1CCC(Cl)CC12 (stereo not given in full) | 213 µM |
| COc1nc2c(c(=O)n1C)N(C(C)=O)C1C(N2)OCC(OC(C)=O)C1OC(C)=O (stereo not given) | > 10 µM |
| O=C(N/N=C/c1ccc2c(c1)CCC2)c1ccccc1O | > 100 µM |
| C[C@]12CCC3[C@@H](CC[C@@H]4c5nonc5CC[C@]34C)C1CCC(=O)N2 (stereo not given in full) | > 100 µM |
| Cc1ccc(NC(=O)/C=C/c2ccccc2)c(C(N)=O)c1 | > 74.1 µM |
| Cc1ccccc1N=Nc1ccc(N=Nc2c(O)ccc3ccccc23)c(C)c1 | > 100 µM |
| Brc1cccc(C2SCc3nc4ccccc4n32)c1 (stereo not given) | > 100 µM |
| C=C1COC(/C=C(\C)CC/C=C(\C)CCl)C1 (stereo not given) | > 100 µM |
| CC(=O)OC1CCn2nnc(CO[Si](C)(C)C(C)(C)C)c21 (stereo not given) | > 100 µM |
| CN1CCCCC1CCN1CCCCC1 (stereo not given) | > 100 µM |
| O=S(=O)(Sc1ccc(Cl)cc1)c1ccc(Cl)cc1 | 44.5 µM |
| Cc1ccc(Oc2ccc(C)cc2[N+](=O)[O-])cc1 | > 100 µM |
| C/C=C/[P+](c1ccccc1)(c1ccccc1)c1ccccc1 | 19.6 µM |
| C=CCc1cc(OC)c2c(c1)C(O)CC(c1ccccc1)O2 (stereo not given) | > 100 µM |

----------
tested on: M14 melanoma; assay: NCI tumour cell line growth inhibition, 48 h

| compound | GI50 |
| --- | --- |
| CN(C)c1ccc(/C=C\c2cccc[n+]2C)cc1 | 10700 nM |
| Cc1ccc(NC(=O)/C=C/c2ccccc2)c(C(N)=O)c1 | 2120 nM |
| O=C(C1CCCCC1)[C@@H]1[C@]2(C(=O)NC3CCCCC32)[C@@H]2CCCN2[C@@]12C(=O)NC1CCC(Cl)CC12 (stereo not given in full) | 116000 nM |
| CC(CN1CCN(CCOCCO)CC1)CN1c2ccccc2Sc2ccc(Cl)cc21 (stereo not given) | 1850 nM |
| O=[N+]([O-])c1cccc(-c2nc3sccn3c2-c2ccnc(NCCCNS(=O)(=O)c3cccc(F)c3)n2)c1 | 2820 nM |
